test: endothelial E-selectin expression blockers – imaging, HUVEC, immunofluorescence, MLSMR starter and 10KST1 sets, primary screen (AID 487); details: HUVEC TNFalpha-induced E-selectin immunofluorescence imaging, at 2 µM; measured here: cell number, toxicity;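 further: 100% = median nuclei count of all wells on the same plate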
// values below are reported nuclei count
Form entry: value (%) — number only.

Examples with answers:
Nn1c(SCC(=O)NC2CCCCC2)nnc1-c1ccc(Cl)cc1; 108
Fc1ccc(-c2ccc(-c3nn4c(-c5ccco5)nnc4s3)o2)cc1; 101
O=C(Nn1cnnc1)C1Cc2ccccc2CN1S(=O)(=O)c1ccc(F)cc1 (stereo unspecified); 95.6
OCCNc1nc2ccc(Cl)cc2[nH]1; 110
CC1(C)CC(=O)C2=C(C1)NC(=O)CC2c1ccc(N(CCC#N)CCC#N)cc1 (stereo unspecified); 116

(Q) Item `O=C(NCC12CC3CC(C1)CC(CNC(=O)N1CCCC1)(C3)C2)N1CCCC1` has what recorded nuclei count?
(A) 112

(Q) And COc1cccc(N2CCN(C(=O)C3C4C=CC5(CN(Cc6ccccc6Cl)C(=O)C35)O4)CC2)c1 (stereo unspecified) ?
(A) 123

(Q) And `CN(C)c1nc(Oc2ccc(=O)n(C)n2)nc(N2CCOCC2)n1` ?
(A) 96.5

(Q) And `Cn1cccc1Cc1nnc(SCC(=O)N2CCOCC2)n1-c1ccc(F)cc1` ?
(A) 96.2

(Q) And CCC(C)NC(=O)c1ccccc1NC(=O)C(C)N(c1ccccc1)S(C)(=O)=O (stereo unspecified) ?
(A) 99.9

(Q) And `COC(=O)c1ccccc1NC(=O)c1ccc(COc2ccccc2)o1` ?
(A) 114
